Numbers sourced from patent US11633377B2.

Test: Effect of fluvoxamine co-administration on tasimelteon pharmacokinetics
Assay type: in vivo, human
Details: Day 8 (with fluvoxamine) vs Day 1
Procedure: Twenty-four healthy male or female subjects between the ages of 18 and 55 years of age (inclusive) who were non-smokers with a body mass index (BMI) of 18 and 35 kg/m2 participated in this open-label, single-sequence study conducted at one site. On day 1, subjects were administered 5.667 mg of tasimelteon.
Measured Attribute: Geometric Mean Ratio, t1/2 (%)

INSERT INTO assay_data (compound, measured_attribute, scale_unit, value_measured) VALUES
  ('CCC(=O)NC[C@@H]1C[C@H]1c1cccc(O)c1CC(=O)O [M9]', 'Geometric Mean Ratio, t1/2', '%', 328.02),
  ('CCC(=O)NCC1CC1c1cccc2c1C(O)CO2 (stereo not drawn) [M14]', 'Geometric Mean Ratio, t1/2', '%', 243.34),
  ('CCC(=O)NCC1CC1c1cccc2c1CC(O)O2 (stereo not drawn) [M13]', 'Geometric Mean Ratio, t1/2', '%', 349.81),
  ('CCC(=O)NCC1CC1c1cccc2c1C(O)CO2 (stereo not drawn) [M12]', 'Geometric Mean Ratio, t1/2', '%', 241.02),
  ('CCC(=O)NC[C@@H]1C[C@H]1c1cccc2c1CCO2 (relative stereo) [Tasimelteon]', 'Geometric Mean Ratio, t1/2', '%', 211.82),
  ('CCC(=O)NC[C@@H]1C[C@H]1c1cccc(O)c1CCO [M11]', 'Geometric Mean Ratio, t1/2', '%', 248.35);
